# Activity annotations
assay system: 72 kDa type IV collagenase (Homo sapiens)
method description: Inhibition of matrix metalloprotease-2 (Gel.A)
measure name: Activity (nM)

molecule	measure name	quantitative result
CNC(=O)[C@@H](NC(=O)[C@H](CC(C)C)[C@@H](C(=O)NO)C(C)C)C(C)(C)C	Activity	1
CNC(=O)[C@@H](NC(=O)[C@H](CC(C)C)[C@@H](C(=O)NO)C1CCN(C)CC1)C(C)(C)C	Activity	3
CNC(=O)[C@@H](NC(=O)C(CC(C)C)C(O)C(=O)NO)C(C)(C)C (single isomer, unassigned)	Activity	6
CNC(=O)[C@@H](NC(=O)C(CC(C)C)C(C(=O)NO)C1CC1)C(C)(C)C (single isomer, unassigned)	Activity	100
